Biological target: Caspase recruitment domain-containing protein 9 (Homo sapiens) + B-cell lymphoma/leukemia 10 (Homo sapiens) (UniProt Q9H257+O95999)
Sequence (O95999 whole entry, looked up, the tested form may be a part): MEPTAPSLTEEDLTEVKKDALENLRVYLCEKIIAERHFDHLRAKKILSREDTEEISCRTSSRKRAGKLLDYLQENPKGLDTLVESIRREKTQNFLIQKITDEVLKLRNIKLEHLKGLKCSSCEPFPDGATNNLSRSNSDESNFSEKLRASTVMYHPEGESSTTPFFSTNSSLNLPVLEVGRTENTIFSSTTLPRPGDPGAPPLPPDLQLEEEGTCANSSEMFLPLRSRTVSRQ
Sequence (Q9H257 whole entry, looked up, the tested form may be a part): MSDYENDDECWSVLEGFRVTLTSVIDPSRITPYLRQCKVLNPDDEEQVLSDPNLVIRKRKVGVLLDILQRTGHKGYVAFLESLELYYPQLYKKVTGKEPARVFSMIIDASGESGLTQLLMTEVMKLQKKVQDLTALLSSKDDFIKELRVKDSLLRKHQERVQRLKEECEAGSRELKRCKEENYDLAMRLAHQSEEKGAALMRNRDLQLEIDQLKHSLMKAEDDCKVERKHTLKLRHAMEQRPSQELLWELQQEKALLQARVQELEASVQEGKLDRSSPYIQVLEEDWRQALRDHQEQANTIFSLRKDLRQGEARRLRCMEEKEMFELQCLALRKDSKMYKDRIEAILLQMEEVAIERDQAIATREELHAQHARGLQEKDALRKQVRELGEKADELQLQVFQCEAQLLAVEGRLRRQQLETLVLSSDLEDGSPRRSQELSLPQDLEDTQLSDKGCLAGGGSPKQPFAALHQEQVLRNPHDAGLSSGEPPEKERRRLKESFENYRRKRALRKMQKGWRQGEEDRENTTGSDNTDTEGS
Assay: disruptors of CARD9-BCL10 binding, dose response, selectivity assay for CARD9-TRIM62 disruptor project, cell lysate, HEK293FT lysates, Luminex bead ELISA (AID 1259340)
Conditions: at 80 µM (top of the series)
Activity calls are given as the source filed them.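 Rule for the calls: active = AC50 no more than ten times the top concentration tested; inconclusive = flat fit with inhibition between 30% and 70%, or unusable fit; inactive = AC50 beyond ten times the top concentration.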
VALUE_TYPE: activity change, negative = inhibition

- CCOC(=O)C1CCN(C(=O)CN(Cc2ccccc2)S(C)(=O)=O)CC1: inactive
- CC1CCN(c2nc(-c3ccco3)c3c(c2C#N)CC(C)(C)OC3)CC1: inactive
- O=C(NCCCN1CCOCC1)c1cc(-c2ccco2)nc2ccccc12: inactive
- Cc1cccc(Nc2nc(C(=O)Nc3cc(F)ccc3F)nc3ccccc23)c1: inactive
- Cc1cnc(C)c(N2CCN(C(=O)[C@H]3CC[C@@H](N)C3)CC2)n1: inactive

###

Biological target: Caspase recruitment domain-containing protein 9 (Homo sapiens) + B-cell lymphoma/leukemia 10 (Homo sapiens) (UniProt Q9H257+O95999)
Assay: disruptors of CARD9-BCL10 binding, dose response, selectivity assay for CARD9-TRIM62 disruptor project, cell lysate, HEK293FT lysates, Luminex bead ELISA (AID 1259340)
Activity calls are given as the source filed them.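 The calls were made as follows: active = AC50 no more than ten times the top concentration tested; inconclusive = flat fit with inhibition between 30% and 70%, or unusable fit; inactive = AC50 beyond ten times the top concentration.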
Parameter: AC50. Scope: all listed entries.
VALUE_TYPE: AC50

- O=C(Nc1nccs1)c1cc(-c2ccccn2)nc2c(Cl)cccc12: 41.1 µM
- Cc1ccc2cc(CN(Cc3ccco3)S(C)(=O)=O)c(=O)[nH]c2c1: > 160 µM (inactive)
- COc1cccc(NC(=O)CN(C)C(=O)c2cc3c(s2)CCC3)c1: > 160 µM (inactive)
- O=C(O)C1Oc2cc3ccccc3cc2O1: > 160 µM (inactive)
- O=C1CC2(CCN(C(=O)Nc3ccccc3)CC2)CN1Cc1ccc(Cl)cc1: 79.7 µM
- Cc1ccc(Nc2nc(C(=O)Nc3ccc(Cl)cc3)nc3ccccc23)cc1: > 160 µM (inactive)
- O=C(Nc1nncs1)c1cc(-c2ccco2)nc2ccccc12: 68.5 µM
- c1ccc(-c2nc(-c3ccco3)n3ccccc23)cc1: > 160 µM (inactive)
- O=C(NCC1CCCO1)c1cc(-c2ccco2)nc2ccccc12 (stereo not drawn): > 160 µM (inactive)
- O=C(O)CCc1ccc(-c2cccs2)n1NC(=O)c1ccco1: > 160 µM (inactive)
- CC(=O)Nc1ccc(Nc2nc(-c3nnc(-c4cccc(C)c4)o3)nc3ccccc23)cc1: 72.4 µM
- COc1ccc2nc(-c3ccco3)c(-c3ccco3)nc2c1: 39.2 µM
- C[C@H](CO)N1C[C@H](C)[C@@H](CN(C)CC2CCCCC2)OCCCC[C@H](C)Oc2ccc(NS(=O)(=O)c3ccc(F)cc3)cc2C1=O: > 160 µM (inactive)
- COc1ccc(-c2nnc(-c3nc(Nc4ccc(NC(C)=O)cc4)c4ccccc4n3)o2)cc1: 64.5 µM
- Cc1cccc2nc(CSCc3ccco3)cn12: > 160 µM (inactive)
- CN(C)c1ccc(CN2C[C@H]3CC[C@@H]2CN(C(=O)c2ccncc2)C3)cn1: > 160 µM (inactive)
- O=C1C=C(c2ccccc2)Nc2ccccc2N1: > 160 µM (inactive)
- COc1ccc(-n2c(C)c3c(OC)cccc(=O)c3c2C)cc1: > 160 µM (inactive)
- O=C1CS/C(=N\N=C\c2ccco2)N1c1ccccc1: > 160 µM (inactive)
- O=C(Nc1nc(-c2ccco2)c(-c2ccco2)s1)c1ccc(F)cc1F: > 160 µM (inactive)
- C=CCNc1ncnc2c1CCN(C(=O)c1ccc(CSC)o1)CC2: > 160 µM (inactive)
- Cc1ccc(-c2nnc(-c3nc(Nc4nc5ccccc5s4)c4ccccc4n3)o2)cc1: 64 µM
- CC(=O)c1sc2nc(-c3ccco3)ccc2c1N: 26.1 µM
- CC(=O)c1cccc(OCC(=O)N(C)CC(=O)NCc2ccco2)c1: > 160 µM (inactive)
- O=C(Nc1nc(-c2ccco2)c(-c2ccco2)s1)C1CCC1: > 160 µM (inactive)
- O=C(Nc1nccs1)c1cc(-c2ccco2)nc2ccccc12: > 160 µM (inactive)
- O=C(NCc1ccco1)c1c2c(nc3ccccc13)CCC2: > 160 µM (inactive)
- O=C(NC1(C(F)(F)F)Oc2ccc(Cl)cc2O1)N1CCC2(CC1)OCCO2 (stereo not drawn): 74.8 µM
- O=C(COc1cccnc1[N+](=O)[O-])c1ccc(Cl)s1: 40 µM
- Nc1ccc2ncccc2c1N: 16.1 µM
- C(=C\c1ccco1)/c1nc2ccccc2[nH]1: 58.6 µM
- CCc1ccc(Nc2nc(C(=O)NCc3ccc(N(C)C)cc3)nc3ccccc23)cc1: 7.97 µM
- Cc1ccc(-c2cc(C(=O)NCc3ccco3)c3ccccc3n2)o1: 80.3 µM
- CCOc1ccccc1NC(=O)N1CCCC(c2nccn2CCOC)C1 (stereo not drawn): > 160 µM (inactive)
- CCN1CCN(C(=O)c2cc(-c3ccco3)nc3ccccc23)CC1: > 160 µM (inactive)
- O=C(COC(=O)c1cc(-c2cccs2)nc2ccccc12)NCc1ccco1: > 160 µM (inactive)
- NC(=O)c1ccc(CN2C(=O)C3(CCNCC3)Nc3ccccc32)cc1: > 160 µM (inactive)
- O=C(O)c1ccc2nc(-c3ccco3)c(-c3ccco3)nc2c1: 19.6 µM
- O=S(=O)(c1ccc2nc(-c3ccco3)c(-c3ccco3)nc2c1)N1CCOCC1: 20.3 µM
- C=CC(=O)N1CCCC2(CCN(CCN3CCCC3)C2=O)C1 (stereo not drawn): 22.7 µM
- O=[N+]([O-])c1cccc(-c2nnc3ccc4ccccc4n23)c1: > 160 µM (inactive)
- Cc1nc(C)c(C(=O)Nc2ncc([N+](=O)[O-])s2)o1: 66 µM
- O=C(NC1CC1)c1cc(-c2ccco2)nc2ccccc12: > 160 µM (inactive)

Reference source: PubChem BioAssay AID1259340
